# System: Methicillin resistant Staphylococcus aureus (ATCC 33591)
# Assay Comment: MIC by microbroth dilution, methicillin resistant S. aureus
# Type: cell-based
# Condition: ATCC33591, read-out: Minimum inhibitory concentration (MIC) Methicillin resistant Staphylococcus aureus (ATCC 33591)
Entries and their MIC values follow.

Known MIC results, listed for orientation:
{"Compound": "CN1CCC(Nc2n[nH]c3ncc(/C=C/C(=O)N(C)Cc4cc5ccccc5n4C)cc23)CC1", "MIC": "> 32 µg/mL"}
{"Compound": "CN(Cc1cc2ccccc2n1C)C(=O)/C=C/c1cnc2[nH]c(=O)oc2c1", "MIC": "> 16 µg/mL"}
{"Compound": "CN(Cc1cc2ccccc2n1C)C(=O)/C=C/c1cnc2[nH]c3ccccc3c2c1", "MIC": "> 64 µg/mL"}
{"Compound": "CCNc1n[nH]c2ncc(/C=C/C(=O)N(C)Cc3cc4ccccc4n3C)cc12", "MIC": "> 32 µg/mL"}
{"Compound": "CN(Cc1cc2ccccc2n1C)C(=O)/C=C/c1cnc2[nH]cnc2c1", "MIC": "> 16 µg/mL"}
{"Compound": "Cc1ccc2oc(CN(C)C(=O)/C=C/c3ccc4c(c3)C3(CCC3)C(=O)N4)c(C)c2c1", "MIC": "0.5 µg/mL"}
{"Compound": "CCn1c(=O)[nH]c2ncc(/C=C/C(=O)N(C)Cc3nc4ccccc4s3)cc21", "MIC": "> 16 µg/mL"}
{"Compound": "COc1n[nH]c2ncc(/C=C/C(=O)N(C)Cc3cc4ccccc4n3C)cc12", "MIC": "> 32 µg/mL"}
{"Compound": "CN(Cc1cc2ccccc2n1C)C(=O)/C=C/c1cnc2[nH]nc(N)c2c1 [VT-02-00029a]", "MIC": "2 µg/mL"}
{"Compound": "CN(Cc1cc2ccccc2n1C)C(=O)/C=C/c1cnc2c(c1)CC(=O)N2", "MIC": "2 µg/mL"}

Next:
Lookup: Record request: MIC value, item "CCC1(CC)C(=O)Nc2ncc(/C=C/C(=O)N(C)Cc3sc4ccccc4c3C)cc21"
Found: 0.015 µg/mL

###

This section presents molecules with their documented MIC values.
# System: Methicillin resistant Staphylococcus aureus (ATCC 33591)
# Assay Comment: MIC by microbroth dilution, methicillin resistant S. aureus
# Type: cell-based
# Condition: ATCC33591, read-out: Minimum inhibitory concentration (MIC) Methicillin resistant Staphylococcus aureus (ATCC 33591)

Solved entries (count: 5):
{"Molecule": "CN(Cc1cc2ccccc2n1C)C(=O)/C=C/c1cnc2[nH]ncc2c1", "Study Target": "Methicillin resistant Staphylococcus aureus (ATCC 33591)", "Val": "4 µg/mL"}
{"Molecule": "CCC1(CC)C(=O)Nc2ncc(/C=C/C(=O)N(C)Cc3cc4ccccc4n3C)cc21", "Study Target": "Methicillin resistant Staphylococcus aureus (ATCC 33591)", "Val": "0.12 µg/mL"}
{"Molecule": "CN(Cc1cc2ccccc2n1C)C(=O)/C=C/c1cnc2[nH]nc(N(C)C)c2c1", "Study Target": "Methicillin resistant Staphylococcus aureus (ATCC 33591)", "Val": "2 µg/mL"}
{"Molecule": "Cn1c2c(c3ccccc31)CN(C(=O)/C=C/c1cnc3c(c1)C1(CCC1)C(=O)N3)CC2", "Study Target": "Methicillin resistant Staphylococcus aureus (ATCC 33591)", "Val": "> 8 µg/mL"}
{"Molecule": "CN(Cc1cc2ccccc2n1C)C(=O)/C=C/c1cnc2c(c1)C(C)(C)C(=O)N2", "Study Target": "Methicillin resistant Staphylococcus aureus (ATCC 33591)", "Val": "0.25 µg/mL"}

Lookup: Provide the documented MIC with Methicillin resistant Staphylococcus aureus (ATCC 33591) as the system for "Cc1c(CN(C)C(=O)/C=C/c2cnc3c(c2)C2(CCC2)C(=O)N3)c2ccccc2n1C"
Found: 0.015 µg/mL

Lookup: Query the reported MIC for Methicillin resistant Staphylococcus aureus (ATCC 33591); item: "Cc1c(CN(C)C(=O)/C=C/c2cnc3c(c2)C2(CCCC2)C(=O)N3)sc2ccccc12"
Found: 0.06 µg/mL

Lookup: Lab note: need MIC for "CN(Cc1cc2ccccc2n1C)C(=O)/C=C/c1cnc2[nH]c(=O)n(C)c2c1" on Methicillin resistant Staphylococcus aureus (ATCC 33591), anyone have it?
Found: 8 µg/mL

Lookup: Can you look up MIC on Methicillin resistant Staphylococcus aureus (ATCC 33591) for "Cc1c(CN(C)C(=O)/C=C/c2cnc3c(c2)C(C)(C)C(=O)N3)oc2ccccc12" ?
Found: 0.015 µg/mL

Lookup: MIC of "CN(Cc1cc2ccccc2n1C)C(=O)/C=C/c1cnc2c(c1)C1(CCC1)C(=O)N2" on Methicillin resistant Staphylococcus aureus (ATCC 33591)?
Found: 0.5 µg/mL

###

Reported MIC values are given for each entry in this list.
# Tested on: Methicillin resistant Staphylococcus aureus (ATCC 33591)
# Assay Comment: MIC by microbroth dilution, methicillin resistant S. aureus
# Type: cell-based
# Condition: ATCC33591, read-out: Minimum inhibitory concentration (MIC) Methicillin resistant Staphylococcus aureus (ATCC 33591)
Only the number, expressed in µg/mL, is required.

Field: example entries. Status: answers known.
{"Compound": "CNc1n[nH]c2ncc(/C=C/C(=O)N(C)Cc3cc4ccccc4n3C)cc12 [VT-02-00036]", "MIC, µg/mL": 8}
{"Compound": "CN(Cc1cc2ccccc2s1)C(=O)/C=C/c1cnc2c(c1)C(C)(C)C(=O)N2 [VT-02-00066]", "MIC, µg/mL": 0.5}
{"Compound": "CCn1c(=O)[nH]c2ncc(/C=C/C(=O)N(C)Cc3cc4ccccc4s3)cc21 [VT-02-00049]", "MIC, µg/mL": 0.5}

# ---- query compound ----
Lookup: // MIC lookup, key: CN(Cc1cn(C)c2ccccc12)C(=O)/C=C/c1ccc2c(c1)C1(CCC1)C(=O)N2 [VT-02-00085]
Found: 0.06
